- Test system: UACC-62 melanoma
- measurement-description: NCI-60 one-dose screen, 48 h (100 = growth as untreated, 0 = no growth, -100 = all killed)
- experimental-setup: 10 µM unless noted
About 83,000 compounds went through this panel and 20% of them were active in at least one assay; those are over-represented in the sample as a whole.
parameter-measured: growth (%)
Write the value in % as a bare number.

The cases that follow already have their growth on record.
{"compound": "Cc1ccc(C(=O)Nc2cc(-n3ccnc3)cc(C(F)(F)F)c2)cc1-n1cc(-c2cnc3cccnn23)nn1", "measurement-units": "%", "growth": 19.5}
{"compound": "COc1ccc2[nH]c(O)c(N=Nc3nc(-c4ccccc4)cs3)c2c1", "measurement-units": "%", "growth": 30.8}
{"compound": "CCN1CCN(Cc2ccc(C(=O)Nc3cccc(Nc4ccc5c(OC)cccc5n4)c3)cc2C(F)(F)F)CC1", "measurement-units": "%", "growth": -95.1}
{"compound": "Cc1ccccc1NC(=O)c1cccc(NC(=O)CCl)c1", "measurement-units": "%", "growth": 24.4}
{"compound": "COc1c2c(c(Br)c3c1C(CCc1ccccc1)N(C)CC3)OCO2 (stereo not drawn)", "measurement-units": "%", "growth": 16.3}

## Input API: value(readout=growth, system=UACC-62 melanoma) for record Cc1nn(-c2ccccc2)c2nc(C)n(CC(=O)N/N=C/c3cccc([N+](=O)[O-])c3)c(=O)c12
## Output 81.3

## Input What would you report for Cn1cc(-c2cc3nc(-c4c[nH]c5ccccc45)cc(N)n3n2)c2ccccc21 ?
## Output -88.5

## Input What do you get for CCOC(=O)/C(F)=C/C1CC1C1CCN(C(=O)OC(C)(C)C)CC1 (stereo not drawn) ?
## Output 93.6

## Input Likewise for CC1=C(C(=O)Nc2ccccc2)C(c2cccc(Cl)c2Cl)n2c(nc3ccccc32)N1 (stereo not drawn) ?
## Output 46.7

## Input Ok, now COc1c(F)ccc(C(=O)Nc2ccc3nc(NC(=O)C4CCCN(S(=O)(=O)c5ccc(C(C)(C)C)cc5)C4)sc3c2)c1F (stereo not drawn)
## Output 55.9

## Input Note, next up: O=c1[nH]c2ccccc2cc1COc1ccc(Nc2nccc(-c3ccc(Cl)cc3)n2)cc1
## Output 94.4

## Input Record: Cc1cc(C2(c3cc(C)c(OCC(O)CNc4c(C)n(C)n(-c5ccccc5)c4=O)cc3C(C)C)OC(=O)c3ccccc32)c(C(C)C)cc1OCC(O)CNc1c(C)n(C)n(-c2ccccc2)c1=O (stereo not drawn)
## Output 24.4

## Input What do we get for COc1sc(/C=N/NC(=O)c2[nH]c3ccc(Br)cc3c2-c2ccccc2)cc1Br ?
## Output 17

## Input Repeat with CNS(=O)(=O)N1CCc2c(Br)c3c(c(OC)c2C1CCc1ccccc1)OCO3 (stereo not drawn)
## Output -78.7

## Input Note, next up: CCOC(=O)/C(F)=C/C1CC1C(c1ccccc1)c1ccccc1 (stereo not drawn)
## Output 65.1

## Input What about CCOc1ccccc1[C@H]1C(C(=O)c2ccc(Cl)cc2)C2(N[C@@H]1c1ccccc1)C(=O)Nc1ccc(Br)cc12 (stereo partly drawn) ?
## Output -46.8

## Input Consider next the compound CN1CCN(C(=O)CCN(C(=O)Oc2cc3c(c4ccccc24)[C@H](CCl)CN3C(=O)c2cc3cc(OCCCN4CCC4)ccc3[nH]2)[C@H]2CCSSC2)CC1 in the same way.
## Output -81.9

## Input Quick one: CS(=O)(=O)Nc1cccc(-n2cnc3cc(-c4ccc(O)cc4)ccc32)c1
## Output 26.3
